tgt: Melanocortin receptor 3 (Homo sapiens)
Sequence (P41968 whole entry): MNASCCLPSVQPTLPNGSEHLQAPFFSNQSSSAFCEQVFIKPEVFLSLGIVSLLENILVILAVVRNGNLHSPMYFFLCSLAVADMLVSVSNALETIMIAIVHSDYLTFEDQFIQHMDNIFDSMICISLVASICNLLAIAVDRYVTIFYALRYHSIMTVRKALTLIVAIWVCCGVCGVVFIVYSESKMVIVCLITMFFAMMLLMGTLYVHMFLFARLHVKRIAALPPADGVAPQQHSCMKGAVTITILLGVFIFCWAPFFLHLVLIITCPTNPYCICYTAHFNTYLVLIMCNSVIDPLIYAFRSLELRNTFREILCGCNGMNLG
measured.metric: Ki (µM)
Give the quantity in µM, number only.

Qu. Provide measured Ki value, entry: COc1ccccc1CCNCc1cccnc1N1CCN(C(=O)[C@@H](Cc2ccc(Cl)cc2Cl)NC(=O)CCN)CC1
Ans. 5

---

tgt: Melanocortin receptor 4 (Homo sapiens)
Sequence (P32245 whole entry): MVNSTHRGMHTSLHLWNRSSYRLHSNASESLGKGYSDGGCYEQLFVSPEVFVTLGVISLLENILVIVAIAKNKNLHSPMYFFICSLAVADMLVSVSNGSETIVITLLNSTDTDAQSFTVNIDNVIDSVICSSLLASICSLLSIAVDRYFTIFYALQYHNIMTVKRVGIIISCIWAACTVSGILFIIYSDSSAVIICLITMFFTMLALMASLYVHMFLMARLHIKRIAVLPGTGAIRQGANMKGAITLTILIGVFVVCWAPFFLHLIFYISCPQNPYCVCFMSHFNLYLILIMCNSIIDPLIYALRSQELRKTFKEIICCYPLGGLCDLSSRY
run.description: Displacement of [125I]NDP-MSH from human MC4R expressed in HEK293 cells
Format: cell-based
# if measured Ki < 600 nM: t  # else: f

Below, 3 compounds whose answers are already recorded.
{"compound": "NCCC(=O)N[C@H](Cc1ccc(Cl)cc1Cl)C(=O)N1CCN(c2ncccc2CNCC(F)(F)F)CC1", "cat": "t"}
{"compound": "COc1ccccc1CCNCc1ccccc1N1CCN(C(=O)[C@@H](Cc2ccc(Cl)cc2Cl)NC(=O)CCN)CC1", "cat": "t"}
{"compound": "COc1ccccc1OC(=O)NCc1cccnc1N1CCN(C(=O)[C@@H](Cc2ccc(Cl)cc2Cl)NC(=O)CCN)CC1", "cat": "f"}

Qu. # TODO verify Ki < 600 nM strictly for this compound: COc1ccc(CC(=O)NCc2cccnc2N2CCN(C(=O)[C@@H](Cc3ccc(Cl)cc3Cl)NC(=O)CCN)CC2)cc1
Ans. t

Qu. Take the compound CCC(COC)NCc1cccnc1N1CCN(C(=O)[C@@H](Cc2ccc(Cl)cc2Cl)NC(=O)CCN)CC1 (stereo partly drawn) and say whether its Ki is less than 600 nM.
Ans. t

Qu. Ki strictly < 600 nM for this compound? CCC(CO)NCc1cccnc1N1CCN(C(=O)[C@@H](Cc2ccc(Cl)cc2Cl)NC(=O)CCN)CC1 (stereo partly drawn)
Ans. f

Qu. Dear reviewer, please state whether COCC(C)NCc1ccccc1N1CCN(C(=O)[C@@H](Cc2ccc(Cl)cc2Cl)NC(=O)CCN)CC1 (stereo partly drawn) has Ki strictly beneath 600 nM.
Ans. t

Qu. Below 600 nM on Ki? Entry NCCC(=O)N[C@H](Cc1ccc(Cl)cc1Cl)C(=O)N1CCN(c2ncccc2CNC(=O)c2ccccc2)CC1
Ans. f

Qu. Lab note: Ki threshold 600 nM. Does this compound come in strictly under it? CC(CO)NCc1cccnc1N1CCN(C(=O)[C@@H](Cc2ccc(Cl)cc2Cl)NC(=O)CCN)CC1C (stereo partly drawn)
Ans. t

Qu. Given NCCC(=O)N[C@H](Cc1ccc(Cl)cc1Cl)C(=O)N1CCN(c2ncccc2CNC(=O)NCc2cccs2)CC1 , is recorded Ki strictly lower than 600 nM?
Ans. f

Qu. hey, is Ki for NCCC(=O)N[C@H](Cc1ccc(Cl)cc1Cl)C(=O)N1CCN(c2ncccc2CNC(=O)Oc2ccccc2)CC1 lower than 600 nM or not?
Ans. f

Qu. Is it true that Ki reported for NCCC(=O)N[C@H](Cc1ccc(Cl)cc1Cl)C(=O)N1CCN(c2ncccc2CNC(=O)Cc2ccc(F)cc2)CC1 is less than 600 nM?
Ans. f

---

run.description: Intrinsic clearance in rat liver microsome
Format: ADME
condition.set: liver microsomes
Below: a set of entries, each annotated with reported CLint scaled.
I'd appreciate it if you wrote the number followed by its unit.

{"smiles.repr": "COc1ccccc1CCNCc1cccnc1N1CCN(C(=O)[C@@H](Cc2ccc(Cl)cc2Cl)NC(=O)CCN)CC1", "value.reported": "390 mL/min/kg"}

Qu. Give CLint scaled for the following molecule: COc1ccccc1CCNCc1cccnc1N1CCN(C(=O)[C@@H](Cc2ccc(Cl)cc2Cl)NC(C)=O)CC1
Ans. 3500 mL/min/kg
